FYI, the data here is from ChEMBL document CHEMBL1124153.

- system name: UniProt:P00797
- Sequence (P00797 whole entry): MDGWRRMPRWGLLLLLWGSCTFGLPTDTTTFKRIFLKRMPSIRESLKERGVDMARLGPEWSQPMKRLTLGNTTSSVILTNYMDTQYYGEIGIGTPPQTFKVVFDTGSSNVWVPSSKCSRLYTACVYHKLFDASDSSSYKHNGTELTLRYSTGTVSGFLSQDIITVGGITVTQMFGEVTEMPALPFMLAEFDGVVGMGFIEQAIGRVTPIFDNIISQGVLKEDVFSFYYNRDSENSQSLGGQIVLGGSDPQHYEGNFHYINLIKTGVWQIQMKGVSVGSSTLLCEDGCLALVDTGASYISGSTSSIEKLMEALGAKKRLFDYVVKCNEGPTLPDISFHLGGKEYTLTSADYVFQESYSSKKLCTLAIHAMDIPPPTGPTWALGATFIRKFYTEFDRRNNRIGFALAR
- method summary: In vitro inhibitory activity against renin from lyophilized human plasma
Below, each of the molecules is paired with its reported IC50 value.

>  <input smiles>
CC[C@@H](C)[C@H](NC(=O)/C=C/[C@H](CC(C)C)NC(=O)[C@H](Cc1cnc[nH]1)NC(=O)[C@H](Cc1ccccc1)NC(=O)[C@H]1CCCN1C(=O)[C@H](Cc1cnc[nH]1)NC(=O)[C@H]1CCCN1)C(=O)N[C@@H](Cc1cnc[nH]1)C(=O)N[C@H](CCCCN)C(=O)O

>  <output unit>
µM

>  <IC50>
6.2

$$$$
>  <input smiles>
CC[C@@H](C)[C@H](NC(=O)[C@@H](NC[C@H](CC(C)C)NC(=O)[C@H](Cc1c[nH]cn1)NC(=O)[C@H](Cc1ccccc1)NC(=O)[C@H]1CCCN1C(=O)[C@H](Cc1c[nH]cn1)NC(=O)[C@H]1CCCN1)C(C)C)C(=O)N[C@@H](Cc1c[nH]cn1)C(=O)N[C@H](CCCCN)C(=O)O

>  <output unit>
µM

>  <IC50>
0.049

$$$$
>  <input smiles>
CC[C@@H](C)[C@H](NC(=O)[C@@H](SC[C@H](CC(C)C)NC(=O)[C@H](Cc1c[nH]cn1)NC(=O)[C@H](Cc1ccccc1)NC(=O)[C@H]1CCCN1C(=O)[C@H](Cc1c[nH]cn1)NC(=O)[C@H]1CCCN1)C(C)C)C(=O)N[C@@H](Cc1c[nH]cn1)C(=O)N[C@H](CCCCN)C(=O)O

>  <output unit>
µM

>  <IC50>
6

$$$$
